Source: patent US20160200831A1

target: T1, cyno PAI-1 captured on immobilized human vitronectin (cynomolgus monkey; human, UniProt P04004 20-478, limits assumed); assay: Biacore, cPAI-1 on vitronectin chip, 1:1 model
T1 construct: non-covalent complex formed on the chip; also called cPAI-1/Vn
T1 sequence (chain, as listed by the source limits assumed, chain 1 of 2): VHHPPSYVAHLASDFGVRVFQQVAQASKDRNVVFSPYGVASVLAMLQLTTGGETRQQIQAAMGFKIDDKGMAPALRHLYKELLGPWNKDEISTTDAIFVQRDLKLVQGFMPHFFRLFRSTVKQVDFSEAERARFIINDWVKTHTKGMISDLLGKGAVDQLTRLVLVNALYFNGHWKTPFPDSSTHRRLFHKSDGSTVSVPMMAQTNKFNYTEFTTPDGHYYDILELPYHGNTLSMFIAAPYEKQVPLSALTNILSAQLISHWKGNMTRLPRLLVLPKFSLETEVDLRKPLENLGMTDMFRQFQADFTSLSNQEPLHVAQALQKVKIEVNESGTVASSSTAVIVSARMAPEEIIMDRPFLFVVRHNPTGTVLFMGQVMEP
T1 sequence (P04004 20-478 limits assumed, chain 2 of 2): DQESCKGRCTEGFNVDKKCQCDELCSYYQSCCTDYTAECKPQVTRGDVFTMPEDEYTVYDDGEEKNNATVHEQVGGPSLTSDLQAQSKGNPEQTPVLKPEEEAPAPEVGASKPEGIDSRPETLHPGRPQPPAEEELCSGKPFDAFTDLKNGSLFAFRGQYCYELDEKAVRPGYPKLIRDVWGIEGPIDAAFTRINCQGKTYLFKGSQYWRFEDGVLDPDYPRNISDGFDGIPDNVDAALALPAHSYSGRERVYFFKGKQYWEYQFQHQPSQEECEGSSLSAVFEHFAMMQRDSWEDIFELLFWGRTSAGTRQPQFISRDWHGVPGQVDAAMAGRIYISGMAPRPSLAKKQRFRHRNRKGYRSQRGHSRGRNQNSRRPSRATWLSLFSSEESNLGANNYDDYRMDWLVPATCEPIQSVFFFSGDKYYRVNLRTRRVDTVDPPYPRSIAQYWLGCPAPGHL
Test Readout: kon (M⁻¹ s⁻¹)
Your answer is read as M⁻¹ s⁻¹, so omit the unit and give the number.

Past entries and their recorded results:
A44-hv6 (antibody, V domains shown, humanized A44, HEK293; constant regions as for A44-hv1; also called LC3 x HC3; variant 6) VH: QMTLKESGPTLVKPTQTLSLTCSVSGDSMTNGYWNWIRQFPGKALEYMGYITYSGSTYYNPSLKGRITITRDTSKNQYYLTLSSVTTVDTATYYCARWHYGSPYYFDYWGQGTTLTVSS VL: DIKMTQSPSSLSASVGDRVTITCKASQDINSYLSWLQQKPGKSPKTLIYRANRSVDGVPSRFSGSGSGQDYSLTISSLQPEDLATYYCLQYDEFPPTFGGGTKLEIK
5.26e+06
A44 (antibody, mouse IgG1, V domains shown, mouse IgG1/kappa; also called mA44; A44 parental) VH: EMQLQESGPSLVKPSQTLSLTCSVTGDSMTNGYWNWIRKFPGNKLEYMGYITYSGSTYYNPSLKGRISITRNTSKNQYYLQLSSVTTEDTATYYCARWHYGSPYYFDYWGQGTTLTVSS VL: DIKMTQSPSSMYASLGERVTITCKASQDINSYLSWLQQKPGKSPKTLIYRANRSVDGVPSRFSGSGSGQDYSLTISSLEYEDMGIYYCLQYDEFPPTFGGGTKLEIKR
3.98e+06

Reported kon ( A44-hv9 (antibody, V domains shown, humanized A44, HEK293; constant regions as for A44-hv1; also called LC5b x HC5b; variant 9) VH: QMQLQESGPGLVKPSETLSLTCTVSGDSMTNGYWNWIRQPPGKGLEYMGYITYSGSTYYNPSLKSRITISRDTSKNQYSLKLSSVTAADTAVYYCARWHYGSPYYFDYWGQGTLVTVSS VL: DIQMTQSPSSLSASVGDRVTITCKASQDINSYLSWLQQKPGKAPKTLIYRANRSVDGVPSRFSGSGSGQDYTFTISSLQPEDIATYYCLQYDEFPPTFGGGTKVEIK ) = 6.51e+06
